test system: CU-ACC2; assay: area under concentration-response curve (viability) (AUC (a.u.)); higher = less active; settings: 48 h
Tick 1 (yes) if area under concentration-response curve is 500 or greater. Tick 0 (no) if area under concentration-response curve is less than 500.

> print(dat)
                                   compound  category
1          O=P(O)(O)C(O)(Cn1ccnc1)P(=O)(O)O   1 (yes)
2  CC1=C(C)C\2=C(S1)[N]3C(=NN=C3[C@H](CC(N)=O)\N=C2C4=CC=C(Cl)C=C4)C   1 (yes)
3  CN1\C(=C(O)/C2=C(C=C(Cl)S2)[S+]1([O-])=O)C(=O)NC3=NC=CC=C3    0 (no)
4  NC1CCCN(c2c(/C=C3\SC(=O)NC3=O)cccc2-c2ccccc2)C1 (stereo unspecified)   1 (yes)
5  CNC(=O)Cn1cc(-c2ccc3c(c2)C(F)CC32NC(=O)N(CC(=O)N(Cc3ccc(F)cc3)[C@@H](C)C(F)(F)F)C2=O)cn1 (stereo partly specified)   1 (yes)
